Ref: the supplement of paper PMC11451515

Tested on: SEM cells
Experiment: AUC of viability dose-response curve (% viability x log10 dose units); higher = less sensitive
Settings: RPMI 5 mM glucose + 10% FBS; 48 h
AUC of viability dose-response curve values, listed per item
Write no unit; give the number alone.

Identify the reported AUC of viability dose-response curve for the following entry. Nc1ncnc2c1c(-c1cnc3[nH]ccc3c1)nn2C1CCCC1
306

----------
Each entry below carries its reported cell viability.
System: NOMO1
Assay: cell viability relative to DMSO control; higher = less cytotoxic
Details: RPMI 5 mM glucose + 10% dialyzed FBS; 48 h; 0.00702 µM
Numbers only here, please. The scale is %.

As a guide, the following entries are already answered.
>>> observed("CCC(C)(Oc1ccc(C2(c3ccc(OC(C)(CC)C(=O)O)cc3)CCCCC2)cc1)C(=O)O (stereo not drawn)")
111
>>> observed("O=C(Nc1ccccc1-c1cn2c(CN3CCNCC3)csc2n1)c1cnc2ccccc2n1")
96

Under NOMO1, report cell viability for CC(C)NC[C@@H](C(=O)N1CCN(c2ncnc3c2[C@H](C)C[C@H]3O)CC1)c1ccc(Cl)cc1
115

Fill: cell viability (NOMO1) for this molecule C=CC(=O)N1CCC[C@@H](n2nc(-c3ccc(Oc4ccccc4)cc3)c3c(N)ncnc32)C1
113

Fill in cell viability for CCC[C@H]1C[C@H](C(=O)N[C@@H]([C@@H]2O[C@@H](SC)[C@@H](O)[C@@H](O)[C@H]2O)[C@H](C)Cl)N(C)C1 tested with NOMO1.
120

Under NOMO1: report cell viability of O=c1[nH]c2ccccc2n1C1CCN(Cc2ccc(-c3nc4cc5nc[nH]c5cc4nc3-c3ccccc3)cc2)CC1 .
109

----------
Test system: SEM cells
Assay: cell viability relative to DMSO control; higher = less cytotoxic
Settings: RPMI 5 mM glucose + 10% dialyzed FBS; 48 h; 46.1 µM
parameter: cell viability (%)
Output spec: scalar in %, unitless text.

Examples with answers:
>>> observed("COc1cc2c(cc1OC)CC(=O)N(CCCN(C)C[C@H]1Cc3cc(OC)c(OC)cc31)CC2.Cl")
92
>>> observed("CCOC(=O)\\C1=C(/C)N\\C2=C(C1C3=CC=C(C=C3)C4=CC=CC=C4)\\C(=O)CC(C)(C)C2 (centres undefined)")
57.6
>>> observed("Cc1cnc(NC(=O)Nc2cc(Br)c(C)cc2OC[C@@H]2CNCCO2)cn1")
17.2

Check SEM cells data and give cell viability for O=C(Nc1ccccc1-c1cn2c(CN3CCNCC3)csc2n1)c1cnc2ccccc2n1 .
2.76

----------
Test system: P12-Ichikawa
Test: AUC of viability dose-response curve (% viability x log10 dose units); higher = less sensitive
Details: HPLM + 10% dialyzed FBS; 48 h
parameter: AUC of viability dose-response curve
// no unit string in output, number only

>>> observed("O=C(Nc1ccc(F)c(C(F)(F)F)c1)Nc1nnc(-c2ccncc2)s1")
469
>>> observed("Cc1c(NC(=O)OC[C@@H]2COCCN2)cn2ncnc(Nc3ccc4c(cnn4Cc4cccc(F)c4)c3)c12")
422

Now for the compound whose AUC of viability dose-response curve we want.
State the measured AUC of viability dose-response curve (P12-Ichikawa) of OC1CCC(Nc2ncc3nc(Nc4c(F)cc(F)cc4F)n([C@@H]4CCOC4)c3n2)CC1 (stereo partly drawn)
468

----------
System: SEM cells
Assay: cell viability relative to DMSO control; higher = less cytotoxic
Conditions: RPMI 5 mM glucose + 10% dialyzed FBS; 48 h; 15.4 µM
Below, each entry is listed alongside its reported cell viability.
Form entry: value (%) — number only.

>>> observed("COc1ccc(-c2ccc3c(N4CCOC[C@@H]4C)nc(N4CCOC[C@@H]4C)nc3n2)cc1CO")
34.3
>>> observed("CCC[C@H]1C[C@H](C(=O)N[C@@H]([C@@H]2O[C@@H](SC)[C@@H](O)[C@@H](O)[C@H]2O)[C@H](C)Cl)N(C)C1")
110
>>> observed("CNC1CCC(N(Cc2cccc(-c3ccncc3)c2)C(=O)c2sc3c(F)ccc(F)c3c2Cl)CC1 (stereo not drawn)")
85.9
>>> observed("CC(C)C(=O)Oc1ccc(CO)cc1[C@H](CCN(C(C)C)C(C)C)c1ccccc1")
96.2
>>> observed("C[C@@H]\\1CC(=O)N\\N=C1C2=CC=C(NN=C(C#N)C#N)C=C2")
53.2
>>> observed("CNC(=O)c1ccc(N2C(=S)N(c3ccc(C#N)c(C(F)(F)F)c3)C(=O)C23CCC3)cc1F")
96.3
>>> observed("Cc1cccc(Nc2nc(-c3ccncc3)cs2)c1")
96.3

We next turn to a different compound, shown below.
Tell me its cell viability given CN(NC(=O)CC(=O)NN(C)C(=S)c1ccccc1)C(=S)c1ccccc1 as the entry.
4.37

----------
Tested on: P12-Ichikawa
Assay: cell viability relative to DMSO control; higher = less cytotoxic
Details: RPMI 5 mM glucose + 10% FBS; 48 h; 0.19 µM
Entries and their measured cell viability follow.

>>> observed("Cn1cnc2c1c(=O)[nH]c(=O)n2C")
"103%"

GET cell viability where system = P12-Ichikawa and item = CC(C)=CC[C@@H](O)C/1=C/C(=O)C2=C(O)C=CC(=C2C1=O)O
114%

Write down the reported cell viability (system: P12-Ichikawa) of C\C1=C(\C=C(\C#N)C(=O)N1)C2=CC=NC=C2
107%

----------
System: SEM cells
Assay: cell viability relative to DMSO control; higher = less cytotoxic
Details: HPLM + 10% dialyzed FBS; 48 h; 1.71 µM
parameter: cell viability
Answer format reminder: number followed by unit.

>>> observed("N/C1=N/C(=O)C/2=C(NC[C@@H](CNC3=CC=C(C=C3)C(=O)N[C@@H](CCC([O-])=O)C([O-])=O)N2C=O)\\N1")
"116%"
>>> observed("C/C=C(/C)C(=O)O[C@H]1C(C)=C[C@]23C(=O)[C@@H](C=C(CO)[C@@H](O)[C@]12O)[C@H]1[C@@H](C[C@H]3C)C1(C)C")
"92.5%"
>>> observed("S=P(N1CC1)(N1CC1)N1CC1")
"98.5%"
>>> observed("CN(C)C1=CC=C(C=C1)C(C2=CC=C(C=C2)N(C)C)=C/3\\C=C/C(/C=C3)=[N+](C)C")
"4.38%"

Give the reported value of cell viability for this record: CN1CCN(CC1)C2=C3OCN(C)N4\C=C(C(O)=O)/C(=O)C(=C34)C=C2F
116%

----------
Below is a list of entries, each paired with its recorded cell viability value.
System: P12-Ichikawa
Experiment: cell viability relative to DMSO control; higher = less cytotoxic
Conditions: RPMI 5 mM glucose + 10% FBS; 48 h; 0.00234 µM
I only need the number, in %, no unit after it.

Worked cases, answers included:
>>> observed("COc1ccc(C(C)=O)c(O)c1")
115
>>> observed("O=c1[nH]c2ccccc2n1C1CCN(Cc2ccc(-c3nc4cc5nc[nH]c5cc4nc3-c3ccccc3)cc2)CC1")
102

Tell us which cell viability value is on record for Cc1cn(-c2cc(NC(=O)c3ccc(C)c(Nc4nccc(-c5cccnc5)n4)c3)cc(C(F)(F)F)c2)cn1
111

Give the value of cell viability reported for the following: O=C(Nc1ccc(F)c(C(F)(F)F)c1)Nc1nnc(-c2ccncc2)s1
127

Give a short answer stating reported cell viability for Cc1c(NC(=O)OC[C@@H]2COCCN2)cn2ncnc(Nc3ccc4c(cnn4Cc4cccc(F)c4)c3)c12 .
84.4

Please report cell viability for the following compound: CC/1=C(/N2[C@H](SC1)[C@H](NC(=O)[C@H](N)\C3=C\C\C=C/C3)C2=O)C(O)=O
91.8

// fetch cell viability given entry C[N]1C=C(C2=C1C=CC=C2)\C3=C(\C(=O)NC3=O)C4=C5CC(CN)CC[N]5C6=C4C=CC=C6 (configuration not stated)
108

----------
System: SEM cells
Experiment: cell viability relative to DMSO control; higher = less cytotoxic
Conditions: HPLM + 10% dialyzed FBS; 48 h; 1.71 µM
The following compounds are shown together with reported cell viability values.
Write down the value, and be sure its unit follows.

Please give measured cell viability of the following entry: O=C1c2c(O)ccc(O)c2C(=O)c2c(NCCNCCO)ccc(NCCNCCO)c21
14.7%

Fill in reported cell viability for this entry: Cc1cnc(-c2cc(N3CCN(C(=O)CC[S+](C)(=O)[O-])CC3)ncc2Cl)c(C)c1
130%

Fill in cell viability for record Cc1c(NC(=O)OC[C@@H]2COCCN2)cn2ncnc(Nc3ccc4c(cnn4Cc4cccc(F)c4)c3)c12
96.8%

Using the record for CCC(C)(C)c1ccc(CC(C)CN2C[C@@H](C)O[C@@H](C)C2)cc1 (stereo partly specified) , state its measured cell viability.
75.5%

Specify measured cell viability for Nc1nc(Cl)nc2c1ncn2[C@H]1C[C@H](O)[C@@H](CO)O1 .
12.7%

Give cell viability for the following compound: COc1ccc(-n2nc(C(N)=O)c3c2C(=O)N(c2ccc(N4CCCCC4=O)cc2)CC3)cc1
130%
